test system: Vero E6 infected with SARS-CoV-2; assay: SARS-CoV-2 infection rate relative to infected DMSO; higher = more infection, active = 60 or less; conditions: 24 h
Overview of reported SARS-CoV-2 infection rate across a group of molecules:
Entry rule: numbers only, all in %.

Some solved entries appear below for comparison.
{"molecule": "CCN1CCN(Cc2ccc(Nc3ncc(F)c(-c4cc(F)c5nc(C)n(C(C)C)c5c4)n3)nc2)CC1 [abemaciclib] (10 µM)", "SARS-CoV-2 infection rate (%)": 107}
{"molecule": "CSc1ccc(OCc2ncc([N+](=O)[O-])n2C)cc1 [fexinidazole] (10 µM)", "SARS-CoV-2 infection rate (%)": 114}
{"molecule": "O=C(Nc1c(-c2cccs2)nc2ccccn12)c1ccc(Cl)cc1 (10 µM)", "SARS-CoV-2 infection rate (%)": 84}
{"molecule": "Cc1ccc(Cl)c(OC[C@H](O)CNC(C)C)c1 [1-(2-chloro-5-methylphenoxy)-3-(isopropylamino)-2-propanol] (10 µM)", "SARS-CoV-2 infection rate (%)": 95.5}
{"molecule": "O=C(O)C(Cc1ccccc1[N+](=O)[O-])=NNc1nc(-c2ccc(Cl)c(Cl)c2)cs1 (10 µM)", "SARS-CoV-2 infection rate (%)": 102}
{"molecule": "Nc1nc(Nc2ccccc2)nc2c1ncn2[C@@H]1O[C@H](CO)[C@@H](O)[C@H]1O (10 µM)", "SARS-CoV-2 infection rate (%)": 102}
{"molecule": "CO/N=C(\\C(=O)N[C@@H]1C(=O)N2C(C(=O)O)=C(CSc3nc(C)c(CC(=O)O)s3)CS[C@H]12)c1csc(N)n1 [cefodizime] (10 µM)", "SARS-CoV-2 infection rate (%)": 101}

Attention now turns to another entry.
*Q* Give the measured SARS-CoV-2 infection rate of CCCCCCCCCCCCCCCC[N+](C)(C)C [cetrimonium] (0.833333 µM) .
*A* 114

====

test system: Vero E6 infected with SARS-CoV-2; assay: SARS-CoV-2 infection rate relative to infected DMSO; higher = more infection, active = 60 or less; details: 24 h
measure: SARS-CoV-2 infection rate (%)
Entry rule: numbers only, all in %.

*Q* Give the measured SARS-CoV-2 infection rate of C=CC(=O)Nc1cccc(Nc2nc(Nc3ccc(OCCOC)cc3)ncc2F)c1 (0.833333 µM) .
*A* 116

*Q* Give the measured SARS-CoV-2 infection rate of CCCc1c(OCC(O)COc2ccc3c(=O)cc(C(=O)O)oc3c2CCC)ccc(C(C)=O)c1O (stereo not drawn) (10 µM) .
*A* 99.5

*Q* Give the measured SARS-CoV-2 infection rate of CN(C)c1ccc2nc3ccc(=[N+](C)C)cc-3sc2c1 [methylene-blue] (0.833333 µM) .
*A* 104

*Q* Give the measured SARS-CoV-2 infection rate of CC(=O)Oc1cccc(C(=O)O)c1OC(C)=O [dipyrocetyl] (10 µM) .
*A* 85

*Q* Give the measured SARS-CoV-2 infection rate of CC(C)c1ccc(CC(=O)N2CCC[C@@H](c3cccc(OC(C)(C)C(=O)O)c3)C2)cc1 (10 µM) .
*A* 96

*Q* Give the measured SARS-CoV-2 infection rate of O=C(/C=C\n1cnc(-c2cc(C(F)(F)F)cc(C(F)(F)F)c2)n1)N1CC(F)(F)C1 (10 µM) .
*A* 116

*Q* Give the measured SARS-CoV-2 infection rate of COc1ccc(C(Cl)=C(c2ccc(OC)cc2)c2ccc(OC)cc2)cc1 [chlorotrianisene] (10 µM) .
*A* 95.5

*Q* Give the measured SARS-CoV-2 infection rate of CN1CCN(c2cccc3[nH]c(=O)oc23)CC1 [pardoprunox] (10 µM) .
*A* 103

*Q* Give the measured SARS-CoV-2 infection rate of C=CCN1CCc2nc(N)sc2CC1 [talipexole] (10 µM) .
*A* 104

====

tested on: Vero E6 infected with SARS-CoV-2; test: morphology score (similarity to uninfected cells); higher = more like uninfected cells; settings: 24 h
Note that class boundaries on morphology score are band A (below 0.02), band B (0.02 to below 0.1), band C (0.1 or more)

Observe how each entry below is paired with its result.
{"molecule": "c1ccc2sc(SNC3CCCCC3)nc2c1 [N-cyclohexyl-2-benzothiazolesulfenamide] (10 µM)", "class": "band A"}
{"molecule": "Cc1onc(-c2ccccc2)c1C(=O)N[C@@H]1C(=O)N2[C@@H]1SC(C)(C)[C@@H]2C(=O)O [oxacillin] (10 µM)", "class": "band A"}

*Q* Using the reported morphology score, which band applies to CN(C)C(=O)CCSC(SCCC(=O)O)c1cccc(/C=C/c2ccc3ccc(Cl)cc3n2)c1 (configuration not stated) (10 µM) ?
*A* band A

*Q* Using the reported morphology score, which band applies to CCOC(=O)[C@H](CCc1ccccc1)N[C@@H](C)C(=O)N1CCC[C@H]1C(=O)O [enalapril] (10 µM) ?
*A* band C

*Q* Using the reported morphology score, which band applies to CC(C)S(=O)(=O)NC[C@H](C)c1ccc(-c2ccc(CCNS(C)(=O)=O)cc2)cc1 [mibampator] (10 µM) ?
*A* band C

====

Overview of reported inhibition of SARS-CoV-2 cytopathic effect across a group of compounds:
system: Vero E6 infected with SARS-CoV-2; test: inhibition of SARS-CoV-2 cytopathic effect; higher = more antiviral protection, active = above 15; conditions: 8.33 nM; 48 h
Entry rule: numbers only, all in %.

Some solved entries appear below for comparison.
{"compound": "OCc1ccc(CO)o1", "study target": "Vero E6 infected with SARS-CoV-2", "reported result": 0.38}
{"compound": "Nc1nnc(Sc2ncc([N+](=O)[O-])s2)s1", "study target": "Vero E6 infected with SARS-CoV-2", "reported result": -1.18}

*Q* Give the measured inhibition of SARS-CoV-2 cytopathic effect of COc1cc2c(cc1OC)C1CC(=O)C(CC(C)C)CN1CC2 (stereo not given) .
*A* 0.64

*Q* Give the measured inhibition of SARS-CoV-2 cytopathic effect of O=c1[nH]c(=O)n([C@H]2CCCO2)cc1F (racemic) .
*A* -1.89

====

Overview of reported inhibition of SARS-CoV-2 cytopathic effect across a group of molecules:
test system: Vero E6 infected with SARS-CoV-2; assay: inhibition of SARS-CoV-2 cytopathic effect; higher = more antiviral protection, active = above 15; settings: 1 nM; 48 h
Entry rule: numbers only, all in %.

{"molecule": "Cc1ncc(C[n+]2csc(CCO)c2C)c(N)n1 [thiamine]", "study target": "Vero E6 infected with SARS-CoV-2", "reported result": -3.81}
{"molecule": "Cc1cccc(C)c1NC(=O)[C@@H](C)N [tocainide]", "study target": "Vero E6 infected with SARS-CoV-2", "reported result": 1.21}
{"molecule": "CC=C1C(=O)C[C@H]2[C@@H]3CCC4=CC(=O)CC[C@]4(C)[C@H]3CC[C@]12C", "study target": "Vero E6 infected with SARS-CoV-2", "reported result": 0.03}
{"molecule": "CC(C)CC(NC(=O)OCC1c2ccccc2-c2ccccc21)C(=O)O (stereo in doubt)", "study target": "Vero E6 infected with SARS-CoV-2", "reported result": 1.66}
{"molecule": "N#Cc1ncccn1 [2-cyanopyrimidine]", "study target": "Vero E6 infected with SARS-CoV-2", "reported result": 4.29}

*Q* Give the measured inhibition of SARS-CoV-2 cytopathic effect of COc1cc(C)[nH]c(=O)c1CNC(=O)c1c(C)n([C@H](C)C2CCOCC2)c2ccccc12 .
*A* -1.12

*Q* Give the measured inhibition of SARS-CoV-2 cytopathic effect of Nc1ccc(O)c(C(=O)O)c1 [mesalazine] .
*A* 1.06

*Q* Give the measured inhibition of SARS-CoV-2 cytopathic effect of NCCCCN [putrescine] .
*A* 2.4

*Q* Give the measured inhibition of SARS-CoV-2 cytopathic effect of NC(=O)[C@@H](CCC(F)(F)F)N(Cc1ccc(-c2ncon2)cc1F)S(=O)(=O)c1ccc(Cl)cc1 [avagacestat] .
*A* 0.74

*Q* Give the measured inhibition of SARS-CoV-2 cytopathic effect of O=c1[nH]c(=O)n([C@H]2C[C@H](O)[C@@H](CO)O2)cc1I [idoxuridine] .
*A* 1.04

*Q* Give the measured inhibition of SARS-CoV-2 cytopathic effect of O=C1Nc2ccccc2C2(CCN(CCc3ccc(C(F)(F)F)cc3)CC2)O1 .
*A* -1.89

*Q* Give the measured inhibition of SARS-CoV-2 cytopathic effect of CN1C[C@@H]2CN(c3ccc(-c4ccccc4)nn3)C[C@@H]2C1 .
*A* 1.02

====

system: Vero E6 infected with SARS-CoV-2; assay: inhibition of SARS-CoV-2 cytopathic effect; higher = more antiviral protection, active = above 15; conditions: 833.33 nM; 48 h
Overview of reported inhibition of SARS-CoV-2 cytopathic effect across a group of compounds:
Entry rule: numbers only, all in %.

Some solved entries appear below for comparison.
{"compound": "CC(=O)NC[C@H]1CN(c2ccc(-c3ccc(CNCc4cnn[nH]4)cc3)c(F)c2)C(=O)O1 [radezolid]", "reported result": -0.64}
{"compound": "Cc1ccc(-c2cc(C(F)(F)F)nn2-c2ccc(S(N)(=O)=O)cc2)cc1 [celecoxib]", "reported result": 1.62}
{"compound": "Nc1ccc2ncnc(NCCc3ccc(Oc4ccccc4)cc3)c2c1", "reported result": 0.25}
{"compound": "CN1CCCC(n2nc(Cc3ccc(Cl)cc3)c3ccccc3c2=O)CC1 (stereo not given) [azelastine]", "reported result": -2.95}
{"compound": "CCCCCCCCCCCCCCCCCCCCCC(=O)O", "reported result": 0.29}

*Q* Give the measured inhibition of SARS-CoV-2 cytopathic effect of CCOC(=O)C1=C(C)NC(C)=C(C(=O)OC)C1c1cccc(Cl)c1Cl (stereo not given) [felodipine] .
*A* 4.84

*Q* Give the measured inhibition of SARS-CoV-2 cytopathic effect of C=CCN(C)CCCCCCOc1ccc(C(=O)c2ccc(Br)cc2)c(F)c1 .
*A* 0.47
